Data origin, for the record: patent US20170267762A1

Molecular target: T1, human PD-1 extracellular domain fused with mouse Fc (PD-1-mFc) (human, UniProt Q15116 25-170)
T1 construct: extracellular domain; not used because of the label; also called hPD-1-mFc; human PD-1-mouse Fc fusion protein
T1 sequence (Q15116 25-170): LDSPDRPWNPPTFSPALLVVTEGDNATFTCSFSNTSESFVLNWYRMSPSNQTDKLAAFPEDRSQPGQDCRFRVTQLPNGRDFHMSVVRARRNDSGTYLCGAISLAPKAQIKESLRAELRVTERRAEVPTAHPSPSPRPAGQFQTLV
Experiment: blockage ELISA, competitor PDL-1-mFc-biotin (summary table; IC50 in ng/ml in Table 2)
metric: IC50 (µg/mL)
One number for each entry, in µg/mL.

Entry under review: 5A8 murine anti-PD-1 antibody (antibody, V domains shown, Purified hybridoma antibody; also called 5A8-mIgG1) VH: QVQLQQSGDELVRPGTSVKMSCKAAGYTFTNNWIGWVKQRPGHGLEWIGDFYPGGGYTNYNEKFKGKATLTADTSSSTAYMQLSSLTSEDSAIYYCARGYGTNYWYFDVWGAGTTVTVSS VL: NIVMTQTPKILFISAGDRVTITCKASQSVSNDVAWYQQKPGQSPKLLIYYAFTRYIGVPDRFTGSGYGTDFTFTISTVQAEDLAVYFCQQDYSSPYTFGGGTKLEIKR . Reported IC50? 1.13
